- test-system: HIV integrase (Human immunodeficiency virus type 1 group M subtype B)
- Construct: The HIV integrase used in these assays was expressed in E. coli; made in house; host or cells: E. coli
- protocol: biochemical
- Assay type: biochemical
- condition-label: 50 μM peptide; results normalized to His-Cys-Lys-Phe-Trp-Trp-NH2 (SEQ ID NO: 19)
Residues, ends and D or L forms follow the SMILES beside them.
measured-metric: % Inhibition of HIV integrase activity (%)
Numbers only, in %.

# example entries with known answers
compound | endpoint-unit | % Inhibition of HIV integrase activity
C[C@H](NC(=O)[C@H](Cc1c[nH]c2ccccc12)NC(=O)[C@H](Cc1ccccc1)NC(=O)[C@H](CCCCN)NC(=O)[C@H](CS)NC(=O)[C@@H](N)Cc1c[nH]cn1)C(N)=O [compound 2] (H-HCKFWA-NH2) | % | 2
N=C(N)NCCC[C@H](NC(=O)[C@H](Cc1c[nH]c2ccccc12)NC(=O)[C@H](Cc1ccccc1)NC(=O)[C@H](CCCCN)NC(=O)[C@H](CS)NC(=O)[C@@H](N)Cc1c[nH]cn1)C(N)=O [compound 3] (H-HCKFWR-NH2) | % | 88
CC[C@H](C)[C@H](NC(=O)[C@H](Cc1c[nH]c2ccccc12)NC(=O)[C@H](Cc1ccccc1)NC(=O)[C@H](CCCCN)NC(=O)[C@H](CS)NC(=O)[C@@H](N)Cc1c[nH]cn1)C(N)=O [compound 11] (H-HCKFWI-NH2) | % | 96
NCCCC[C@H](NC(=O)[C@H](CS)NC(=O)[C@@H](N)Cc1c[nH]cn1)C(=O)N[C@@H](Cc1ccccc1)C(=O)N[C@@H](Cc1c[nH]c2ccccc12)C(=O)N[C@@H](CCC(=O)O)C(N)=O [compound 7] (H-HCKFWE-NH2) | % | 28
CC(C)[C@H](NC(=O)[C@H](Cc1c[nH]c2ccccc12)NC(=O)[C@H](Cc1ccccc1)NC(=O)[C@H](CCCCN)NC(=O)[C@H](CS)NC(=O)[C@@H](N)Cc1c[nH]cn1)C(N)=O [compound 21] (H-HCKFWV-NH2) | % | 85
NCCCC[C@H](NC(=O)[C@H](Cc1c[nH]c2ccccc12)NC(=O)[C@H](Cc1ccccc1)NC(=O)[C@H](CCCCN)NC(=O)[C@H](CS)NC(=O)[C@@H](N)Cc1c[nH]cn1)C(N)=O [compound 13] (H-HCKFWK-NH2) | % | 34
NCCCC[C@H](NC(=O)[C@H](CS)NC(=O)[C@@H](N)Cc1c[nH]cn1)C(=O)N[C@@H](Cc1ccccc1)C(=O)N[C@@H](Cc1c[nH]c2ccccc12)C(=O)N[C@@H](CO)C(N)=O [compound 17] (H-HCKFWS-NH2) | % | 40
NCCCC[C@H](NC(=O)[C@H](CS)NC(=O)[C@@H](N)Cc1c[nH]cn1)C(=O)N[C@@H](Cc1ccccc1)C(=O)N[C@@H](Cc1c[nH]c2ccccc12)C(=O)N[C@@H](CC(=O)O)C(N)=O [compound 5] (H-HCKFWD-NH2) | % | 18

Please look at the following compound next.
Asked: I would be grateful if you could share the reported % Inhibition of HIV integrase activity for NCCCC[C@H](NC(=O)[C@H](CS)NC(=O)[C@@H](N)Cc1c[nH]cn1)C(=O)N[C@@H](Cc1ccccc1)C(=O)N[C@@H](Cc1c[nH]c2ccccc12)C(=O)NCC(N)=O [compound 9] (H-HCKFWG-NH2) .
Given back: 82

Entry source: patent US5578573A
